target_of_assay: recombinant human ALK5 (TGF-βR1) protein (Homo sapiens, UniProt P36897)
Construct: purchased Life Technologies PR9075A
Sequence (P36897 34-503): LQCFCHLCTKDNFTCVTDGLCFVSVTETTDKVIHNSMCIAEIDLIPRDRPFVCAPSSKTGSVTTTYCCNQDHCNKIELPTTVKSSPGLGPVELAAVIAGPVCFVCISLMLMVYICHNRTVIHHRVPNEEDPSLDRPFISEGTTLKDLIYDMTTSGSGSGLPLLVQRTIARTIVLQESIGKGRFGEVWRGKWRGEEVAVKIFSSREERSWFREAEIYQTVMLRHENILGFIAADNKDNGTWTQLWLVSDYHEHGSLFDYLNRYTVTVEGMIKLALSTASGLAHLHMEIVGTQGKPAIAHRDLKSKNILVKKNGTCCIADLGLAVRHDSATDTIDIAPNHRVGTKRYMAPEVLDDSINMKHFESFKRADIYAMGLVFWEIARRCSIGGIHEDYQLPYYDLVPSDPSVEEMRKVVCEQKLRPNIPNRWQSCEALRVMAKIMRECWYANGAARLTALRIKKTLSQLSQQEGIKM
assay: Biochemical ALK5 (TGF-βR1) assay to measure pKi (LANCE Ultra ULight kinase assay)
condition_context: apparent pKi from pIC50 by Cheng-Prusoff, read-out: ALK5 pKi (converted)
Ki listing for selected molecules.

1) Cc1cccc(-c2[nH]cnc2-c2ccc3ncc(C4=CCC(N(C)C)CC4)cc3n2)n1 (stereo not shown)    < 0.0316 nM
2) Cc1cccc(-c2nc3ncccn3c2-c2ccc3ncc(-c4cn[nH]c4)cc3n2)n1    0.0398 to 0.316 nM

Given the molecule Cc1cccc(-c2[nH]cnc2-c2ccc3ncc(-c4ccc(C(=O)OC[C@H]5CCCNC5)cn4)cc3c2)n1 , what is its reported Ki?
0.0398 to 0.316 nM

# repeat for Cc1cccc(-c2n[nH]cc2-c2ccc3ncc(-c4cn(CCN5CCOCC5)nn4)cc3n2)n1
0.0398 to 0.316 nM

Again, but for Cc1cccc(-c2[nH]cnc2-c2ccc3ncc(C4=CCC(NC(=O)N5CCNCC5)CC4)cc3c2)n1 (stereo not shown)
0.0398 to 0.316 nM

Entry to check: Cc1cccc(-c2[nH]ncc2-c2ccc3ncc(C(=O)OC4CCN(C)C4)cc3n2)n1 (stereo not shown)
0.0398 to 0.316 nM

For COc1[nH]nc(-c2cccc(C)n2)c1-c1ccc2ncc(N3CCC(N4CCN(C)CC4)CC3)cc2n1 then?
0.0398 to 0.316 nM

Moving on to COCC1CN(c2cnc3ccc(-c4c[nH]nc4-c4cccc(C)n4)nc3c2)CCN1 (racemic)
0.0398 to 0.316 nM

Next record, please: Cc1nc(-c2nc3ccccn3c2-c2ccc3ncc(NCCN4CCN(C(C)C)CC4)cc3n2)ccc1F
0.0398 to 0.316 nM

And the next one, Cc1nc(-c2n[nH]cc2-c2ccc3ncc(-c4cnn(CCN)c4)cc3n2)ccc1F ?
< 0.0316 nM

Same lookup for Cc1cccc(-c2[nH]cnc2-c2ccc3ncc(C4=CCN(C(C)C)C4)cc3c2)n1 , please.
< 0.0316 nM
